FYI, the data here is from patent US20260217821A1.

Target: T1, ROR1 expressed on cells (A549, MB231, JeKo-1, MEC-ROR1) (UniProt Q01973 30-937)
T1 construct: whole, on cells; also called ROR1-expressing cell lines; ROR1-positive cells
T1 sequence (Q01973 30-937): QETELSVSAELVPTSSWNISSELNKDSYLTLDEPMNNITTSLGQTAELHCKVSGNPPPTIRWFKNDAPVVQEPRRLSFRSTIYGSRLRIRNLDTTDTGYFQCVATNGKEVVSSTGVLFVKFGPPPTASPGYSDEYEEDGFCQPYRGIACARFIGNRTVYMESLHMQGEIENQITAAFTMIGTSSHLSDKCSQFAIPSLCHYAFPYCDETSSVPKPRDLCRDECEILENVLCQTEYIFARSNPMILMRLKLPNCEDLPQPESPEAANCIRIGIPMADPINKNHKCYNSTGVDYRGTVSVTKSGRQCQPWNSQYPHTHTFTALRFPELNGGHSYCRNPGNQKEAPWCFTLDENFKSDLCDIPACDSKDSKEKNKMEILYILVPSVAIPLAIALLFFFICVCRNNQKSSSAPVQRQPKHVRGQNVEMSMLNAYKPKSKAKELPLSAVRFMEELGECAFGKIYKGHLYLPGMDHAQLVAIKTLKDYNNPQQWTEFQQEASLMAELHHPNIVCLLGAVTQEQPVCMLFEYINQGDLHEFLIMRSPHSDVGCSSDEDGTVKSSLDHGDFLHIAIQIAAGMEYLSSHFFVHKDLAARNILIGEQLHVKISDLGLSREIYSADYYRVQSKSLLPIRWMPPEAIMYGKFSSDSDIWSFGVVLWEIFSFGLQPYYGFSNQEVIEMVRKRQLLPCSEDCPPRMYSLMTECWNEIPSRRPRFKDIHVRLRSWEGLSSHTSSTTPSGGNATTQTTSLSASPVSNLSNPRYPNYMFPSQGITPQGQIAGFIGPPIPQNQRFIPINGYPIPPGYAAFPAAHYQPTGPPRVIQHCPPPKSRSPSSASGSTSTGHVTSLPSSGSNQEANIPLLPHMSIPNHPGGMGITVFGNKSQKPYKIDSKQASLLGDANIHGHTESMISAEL
Test: flow cytometry on A549 cells, 1 µg/ml, anti-HA APC
experimental endpoint: proportion of binding cells (%)

5-95 (VHH, not shown: one his tag and one HA tag at the C-terminus) VHH: QVQLQESGGGLVQPGGSLRLSCAASGFTFSTYSMTWVRQAPGKGLEWVSDINSGGSVAYYTDSVKGRFTASRDNAKNTLYLQMNSLKPEDTAVYYCYEGGYHGGSPRGHGTQVTVSS = 11.8
4-92 (VHH, Alpaca VHH from the phage library; not shown: one his tag and one HA tag at the C-terminus) VHH: QVQLQESGGGLVQPGGSLRLSCAASGFAFSSRAMSWVRQAPGKGLEWVSDINYDGAWTYYADSVKGRFTISRDNAKNTLYLQMNSLKPEDTAVYFCTDPWSIDGWGQGTQVTVSS = 34.6
5-09 (VHH, also called 5-9; not shown: one his tag and one HA tag at the C-terminus) VHH: QVQLQESGGGLVQPGGSLRLSCAASGFTLDDYAIGWFRQAPGKERERISCISSGGNTNYADSVKGRFTLSRDNAKNTVYLQMYSLKPEDTAVYYCTASIPSCASYYFPPRNMDYWGKGTQVTVSS = 18.5
5-26 (VHH, Alpaca VHH from the phage library; not shown: one his tag and one HA tag at the C-terminus) VHH: QVQLQESGGGLVQPGGSLRLSCAASGFTLDLYAIGWFRQAPGKERERVSCISSGGSTNYAESVKGRFTISRDNGKNTVYLQMNSLKPEDTAVYYCVRSVPSCGSYYFPPRNMNYWGKGTQVTVSS = 97
